- Test system: expanded OPCs
- Experimental protocol: cells
- Test conditions: alamarBlue viability of expanded OPCs, compound at 1 µM, relative to DMSO control
# thresholds on 1 µM (% DMSO) define classes: lo: < 40 % DMSO; med: ≥ 40 % DMSO and < 90 % DMSO; hi: ≥ 90 % DMSO

Field: example entries. Status: answers known.
{"columns": ["Compound", "Discrete label"],
 "data": [
  ["OC(c1cc(C(F)(F)F)nc2c(C(F)(F)F)cccc12)C1CCCCN1 (stereo not shown) [Mefloquine]", "lo"],
  ["Clc1ccc2nsnc2c1NC1=NCCN1 [Tizanidine]", "hi"],
  ["O=C(NCC1CCCCN1)c1cc(OCC(F)(F)F)ccc1OCC(F)(F)F (stereo not shown) [Flecainide]", "lo"]
]}

GET /class?item= CNCCC=C1c2ccccc2CCc2ccccc21 [Nortriptyline]
lo

Determine which band this compound sits in: c1ccc2c(c1)CCCC2C1=NCCN1 (stereo not shown) [Tyzine]
hi

Consider CNCCCN1c2ccccc2CCc2ccccc21 [Desipramine] . To which 1 µM (% DMSO) class does it belong?
med

----------
- Tested on: expanded OPCs
- Experimental protocol: cells
- Test conditions: Rattus norvegicus, 72 h, read-out: 10 µM (% DMSO), alamarBlue viability of expanded OPCs, compound at 10 µM, sheet All Tox data
We label by threshold. Values of viability at 10 µM strictly beneath 30% are 1. Values of 30% and up are 0.

Known results for compounds:
{"columns": ["Compound", "Assayed target", "Discrete label"],
 "data": [
  ["CN[C@H]1CC[C@@H](c2ccc(Cl)c(Cl)c2)c2ccccc21 [Sertraline]", "expanded OPCs", 1],
  ["CN1CCN(CCCN2c3ccccc3Sc3ccc(C(F)(F)F)cc32)CC1 [Trifluoperazine, reference compound]", "expanded OPCs", 1],
  ["CC12CC3CC(C)(C1)CC(N)(C3)C2 [Memantine]", "expanded OPCs", 0],
  ["CC(=O)[C@]1(O)Cc2c(O)c3c(c(O)c2[C@@H](O[C@H]2C[C@H](N)[C@H](O)[C@H](C)O2)C1)C(=O)c1ccccc1C3=O [Idarubicin]", "expanded OPCs", 1],
  ["CC(C)[C@H](N)C(=O)OCCOCn1cnc2c(=O)[nH]c(N)nc21 [Valaciclovir]", "expanded OPCs", 0]
]}

Is viability at 10 µM strictly under 30% for the entry COc1ccc2c3c1O[C@H]1C[C@@H](O)C=C[C@@]31CCN(C)C2 [Galantamine] ?
0

Item Fc1ccc([C@@H]2CCNC[C@H]2COc2ccc3c(c2)OCO3)cc1 [Paroxetine] : viability at 10 µM beneath 30%, strictly?
1

In plain terms, does CN1C(=O)CC[C@H]1c1cccnc1 [Cotinine] come in under 30% for viability at 10 µM?
0

----------
Measured viability at 1 µM accompanies every entry in the list below.
- Test system: expanded OPCs
- Experimental protocol: cells
- Test conditions: Rattus norvegicus, 72 h, read-out: 1 µM (% DMSO), alamarBlue viability of expanded OPCs, compound at 1 µM, sheet All Tox data
Could you write the number and then its unit?

{"columns": ["Compound", "Value kind", "Result"],
 "data": [
  ["O=c1c(-c2ccccc2)c1-c1ccccc1", "viability at 1 µM", "65%"],
  ["CC(=O)OCC(CCn1cnc2cnc(N)nc21)COC(C)=O", "viability at 1 µM", "90.6%"],
  ["Cc1nc2n(c(=O)c1CCN1CCC(c3noc4cc(F)ccc34)CC1)CCCC2", "viability at 1 µM", "99.8%"],
  ["CN1CCN(c2c(F)cc3c(=O)c(C(=O)O)cn4c3c2SCC4)CC1", "viability at 1 µM", "89.1%"],
  ["COc1ccccc1OCCNCC(O)COc1cccc2[nH]c3ccccc3c12 (stereo not drawn)", "viability at 1 µM", "54.5%"]
]}

We now examine a further compound.
What value of viability at 1 µM has been reported for the following compound? CN(C)CCCSc1ccccc1NC(=O)/C=C/c1ccccc1
84.3%
